assay-system: RBP4 (Homo sapiens, UniProt P02753)
experimental-protocol: Binding assay by Retinol-RBP4-TTR ELISA
Set-up: the culture supernatant containing secreted hRBP4-His was recovered; made in house; host or cells: FreeStyle 293 expression system (Invitrogen), secreted into the culture supernatant
assay-setup: 10 μM compound; retinol 50 nM; His-tagged human RBP4, biotinylated human TTR; read-out: human RBP4 binding inhibitory activity (% at 10 μM)
Reported inhibition at 10 µM values are given for each entry in this list.
readout-label: inhibition at 10 µM

O=C(O)COc1ccn(-c2cc(C(F)(F)F)cc(C(F)(F)F)c2)n1    100%
O=C(O)COc1cnc(-c2cc(C(F)(F)F)cc(C(F)(F)F)c2)nc1    98%
O=C(O)CCn1ccc(-c2cc(C(F)(F)F)cc(C(F)(F)F)c2)n1    100%
O=C(O)COc1nc(-c2cc(C(F)(F)F)cc(C(F)(F)F)c2)co1    100%
O=C(O)COc1ccc(-c2cc(C(F)(F)F)cc(C(F)(F)F)c2)nc1    99%
